Hello, the source for this data is paper PMC9712689, in case you need it.

# tgt: T1, TypA (P. aeruginosa PAO1, UniProt Q9HU67 1-605)
# T1 sequence (looked up): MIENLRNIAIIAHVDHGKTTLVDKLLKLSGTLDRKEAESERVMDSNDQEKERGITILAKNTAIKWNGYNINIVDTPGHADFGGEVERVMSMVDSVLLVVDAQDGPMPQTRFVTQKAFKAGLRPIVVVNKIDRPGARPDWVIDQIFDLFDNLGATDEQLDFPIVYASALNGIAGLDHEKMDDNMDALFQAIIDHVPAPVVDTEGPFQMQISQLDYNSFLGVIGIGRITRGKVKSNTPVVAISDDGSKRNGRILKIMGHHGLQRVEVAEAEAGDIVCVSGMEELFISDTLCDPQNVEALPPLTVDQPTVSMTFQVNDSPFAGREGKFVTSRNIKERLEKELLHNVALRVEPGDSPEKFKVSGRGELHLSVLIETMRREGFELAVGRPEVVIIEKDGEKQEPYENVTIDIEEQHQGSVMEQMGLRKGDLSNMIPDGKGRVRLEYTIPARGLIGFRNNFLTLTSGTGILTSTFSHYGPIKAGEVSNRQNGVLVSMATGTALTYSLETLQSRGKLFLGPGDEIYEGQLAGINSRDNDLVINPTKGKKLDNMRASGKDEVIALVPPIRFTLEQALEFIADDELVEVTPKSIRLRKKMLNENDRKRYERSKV
# method.summary: SPR; RlpA-Δ81 or RlpA-SPOR amine-coupled to its own CM4 chip, partner as analyte; 25 °C; 10 mM HEPES pH 7.4, 150 mM NaCl, 3 mM EDTA, 0.005% P20; alternate fitting model for PBP1a on RlpA-SPOR
# experimental.setup: both partners purified
metric: Kd (µM)

[
  {
    "binder": "RlpA-SPOR (domain or fragment, P. aeruginosa PAO1, UniProt Q9X6V6 264-342, looked up) ADGLYLQVGAFANPDAAELLKAKLSGVTAAPVFISSVVRNQQILHRVRLGPIGSADEVSRTQDSIRVANLGQPTLVRPD",
    "result.unit": "µM",
    "observed.measurement": 4.25
  }
]
